# Test description: VP16 counterscreen qHTS for inhibitors of ROR gamma transcriptional activity;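 also: Gal4-VP16 expression switched on by copper sulfate through the metallothionein promoter; nearly all actives have a fitted effect of over 50% in size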
# Study conditions: Drosophila S2 Gal4-VP16 UAS-luciferase, luminescence, 20 h; series mostly up to 53.6 µM
# Method: NIH Molecular Libraries Probe Production Network [MLPCN] NIH Chemical Genomics Center [NCGC] Assay Provider: Dan Littman, New York University […] For screening, 600 cells in 4 uL/well were dispensed into white solid 1536-well plates (Grenier) using a solenoid-based dispenser. […] After addition of 1.5 uL Photinus luciferase detection reagent, the plates were incubated 10 min at ambient temperature and then read by a ViewLux (Perkin Elmer) to detect luminescence.
Hit rate of the full screen: of about 310,000 compounds, about 11,000 (3.5%) were called active. Another 8% or so got no clear call; they are omitted. Calls follow the shape of the dose curve; as a rule, active = well fitted inhibition curve with a large enough effect; inconclusive = small, poorly fitted or top-dose-only effect, or effect the other way; inactive = flat fitted curve, though single readings scatter. What follows is part of a selection rich in actives, with near analogues and random picks from the rest.
Possible outcomes: y = active, n = inactive

• CCN1CCN(C(=O)C2CCN(S(=O)(=O)c3cc(Cl)ccc3Cl)CC2)CC1 = n
• COc1ccc(CS(=O)/C(Cl)=C(/Cl)C(=O)Nc2ccc(OC)nc2)cc1 (stereo unspecified) = y
• Cc1ccc(CNC(=O)c2c(-c3ccccc3)noc2C)cc1 = n
• O=C(NCCc1c[nH]c2ccccc12)c1cccc(Br)c1 = n
• C=CCn1c(=O)c(C(=O)NCc2ccc3c(c2)OCO3)c(O)c2ccccc21 = n
• O=C1C2CCCN2C(=O)N1CCCCN1CCN(c2cccc(C(F)(F)F)c2)CC1 (stereo unspecified) = n
• CC1Sc2ccc(S(=O)(=O)CCC(=O)NCc3ccccc3Cl)cc2NC1=O (stereo unspecified) = n
• C[C@H](NC(=O)[C@@H]1Cc2ccccc2CN1C(=O)OC(C)(C)C)C(=O)NC1CCCC1 = n
• Cc1cc(C)cc(NC(=S)NCCc2c[nH]c3ccccc23)c1 = y
• COc1cc(NC(=S)NCc2ccc(S(N)(=O)=O)cc2)cc(OC)c1 = n
• COc1ccccc1CC(=O)NCCc1c[nH]c2ccccc12 = n
• Cn1c(NC(=O)c2ccccc2)nc2ccccc21 = y
• Cc1cc2[nH]ncc2cc1NC(=S)NC(=O)c1ccccc1 = n
• Cc1onc(-c2ccccc2)c1C(=O)N=C(N)c1ccc(Cl)cc1 = n
• COc1ccc(/C=N/OCc2ccccc2C#N)c(OC)c1 = n
• COc1ccc(/C=N/NC(=O)c2ccccc2)cc1OS(=O)(=O)c1ccccc1 = n
• C/C(=N/NC(=O)c1ccc(Br)o1)c1ccc(C)o1 = n
• Cc1onc(-c2ccccc2)c1C(=O)NNC(=S)NC(=O)c1ccc(F)cc1 = y
• CSc1sc(C(=O)NNC(=O)c2ccc(Cl)cc2)c2c1C=CCC2 = n
• CCOC(=O)C1=C(NC(=S)NC(=O)c2ccccc2)c2ccccc2CC1(C)C = y
• CC(=O)NCCc1nc2cc(NC(=O)c3ccccc3)ccc2n1C = n
• CC1CCCCC1NC(=O)c1cn(C)c2ccc(S(=O)(=O)N3CCOCC3)cc2c1=O (stereo unspecified) = n
• O=c1c2ccccc2nc2n1C(CSc1ccc(F)cc1)CN2 (stereo unspecified) = n
• O=C(NC(=S)N1CCc2ccccc21)c1ccco1 = y
• Cc1cc(-n2nc(C)cc2C)n2nc(C)c(-c3ccccc3)c2n1 = n
• CN(Cc1ccccc1)C(=O)C1CCCN(c2ncnc3c2nc2n3CCCCC2)C1 (stereo unspecified) = n
• Cc1ccc(NC(=S)Nc2ncccc2C)c(C)c1 = y
• Cc1onc(-c2ccccc2)c1C(=O)Nc1ccccc1C#N = n
• COc1cc(/C=N/O)cc(Br)c1OS(=O)(=O)c1ccc(C)cc1 = y
• CCn1c(NC(=O)c2nn(C)cc2Br)nc2ccccc21 = y
• COc1cc(/C=N/O)ccc1OCc1ccc([N+](=O)[O-])cc1 = n
• CN1CN(C)c2ccc([N+](=O)[O-])c3cccc1c23 = n
• COc1ccc(NC(=O)/C(Cl)=C(/Cl)S(=O)Cc2ccc(C)cc2)cn1 (stereo unspecified) = n
• COc1cc(C(=O)NCc2nnc(SCC(=O)c3ccc(Cl)cc3)o2)cc(OC)c1OC = n
• O=C(Nc1ccc(Cl)c(Cl)c1)c1ccccc1NC(=O)C1CC=CCC1C(=O)O (stereo unspecified) = n
• NC(=O)c1cc2ccccc2o/c1=N/NC(=O)c1cccc(F)c1 = n

The reported measurements were obtained from PubChem BioAssay AID2546.
